# ASSAYED TARGET: 5-LO (Rattus norvegicus, UniProt P12527)
# Construct: liberation of LTB4 induced by zymosan within an air pouch generated within the subcutaneous tissue of the back of male rats; endogenous in cells; host or cells: living male rats; endogenous enzyme of cells in the zymosan-inflamed subcutaneous air pouch
# Sequence (P12527 whole entry): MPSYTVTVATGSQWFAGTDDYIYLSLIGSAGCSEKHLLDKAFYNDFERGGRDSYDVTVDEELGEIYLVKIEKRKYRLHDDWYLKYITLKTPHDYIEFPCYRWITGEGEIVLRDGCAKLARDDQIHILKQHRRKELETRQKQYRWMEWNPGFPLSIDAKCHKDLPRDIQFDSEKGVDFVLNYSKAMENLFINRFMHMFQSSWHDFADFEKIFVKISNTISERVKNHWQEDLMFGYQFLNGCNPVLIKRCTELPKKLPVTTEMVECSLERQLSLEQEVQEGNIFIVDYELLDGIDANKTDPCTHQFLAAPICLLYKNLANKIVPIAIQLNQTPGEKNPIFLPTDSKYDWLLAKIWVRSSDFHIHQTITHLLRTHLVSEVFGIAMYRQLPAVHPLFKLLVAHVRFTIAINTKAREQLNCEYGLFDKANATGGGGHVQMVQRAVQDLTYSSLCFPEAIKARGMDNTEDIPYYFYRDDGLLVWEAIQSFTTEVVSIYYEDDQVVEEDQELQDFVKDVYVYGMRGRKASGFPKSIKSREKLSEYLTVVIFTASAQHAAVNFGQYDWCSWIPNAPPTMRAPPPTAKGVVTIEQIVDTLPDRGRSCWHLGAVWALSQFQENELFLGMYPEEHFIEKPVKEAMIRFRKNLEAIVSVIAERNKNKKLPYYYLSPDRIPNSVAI
# ASSAY DETAILS: test g) liberation of LTB4 induced by zymosan within an air pouch of male rats
# Type: in vivo
# CONDITION DESCRIPTION: oral
ASSAY ENDPOINT: ED50 (mg/kg)
Answers are plain numbers, in mg/kg.

COMPOUND	ED50 (mg/kg)
COC1(c2cc(F)cc(Sc3ccc4c(c3)OCC(=O)N4C)c2)CCOCC1 [Example 5]	0.15
COC1(c2cc(F)cc(OCc3ccc4c(c3)OC(C)(C)C(=O)N4C)c2)CCOCC1 [Example 2]	1.5
COC1(c2cc(F)cc(OCc3ccc4c(c3)OCC(=O)N4C)c2)CCOCC1 [Example 1]	0.4

query: Entry under review: COC1(c2cc(F)cc(Sc3ccc4c(c3)OCC(=S)N4C)c2)CCOCC1 [Example 7] . Reported ED50?
result: 1.5
